Biological target: T1, integrin αVβ5 (UniProt P06756 31-992; P18084 24-719)
T1 construct: Coated on the ELISA plate
T1 sequence (P06756 31-992, chain 1 of 2): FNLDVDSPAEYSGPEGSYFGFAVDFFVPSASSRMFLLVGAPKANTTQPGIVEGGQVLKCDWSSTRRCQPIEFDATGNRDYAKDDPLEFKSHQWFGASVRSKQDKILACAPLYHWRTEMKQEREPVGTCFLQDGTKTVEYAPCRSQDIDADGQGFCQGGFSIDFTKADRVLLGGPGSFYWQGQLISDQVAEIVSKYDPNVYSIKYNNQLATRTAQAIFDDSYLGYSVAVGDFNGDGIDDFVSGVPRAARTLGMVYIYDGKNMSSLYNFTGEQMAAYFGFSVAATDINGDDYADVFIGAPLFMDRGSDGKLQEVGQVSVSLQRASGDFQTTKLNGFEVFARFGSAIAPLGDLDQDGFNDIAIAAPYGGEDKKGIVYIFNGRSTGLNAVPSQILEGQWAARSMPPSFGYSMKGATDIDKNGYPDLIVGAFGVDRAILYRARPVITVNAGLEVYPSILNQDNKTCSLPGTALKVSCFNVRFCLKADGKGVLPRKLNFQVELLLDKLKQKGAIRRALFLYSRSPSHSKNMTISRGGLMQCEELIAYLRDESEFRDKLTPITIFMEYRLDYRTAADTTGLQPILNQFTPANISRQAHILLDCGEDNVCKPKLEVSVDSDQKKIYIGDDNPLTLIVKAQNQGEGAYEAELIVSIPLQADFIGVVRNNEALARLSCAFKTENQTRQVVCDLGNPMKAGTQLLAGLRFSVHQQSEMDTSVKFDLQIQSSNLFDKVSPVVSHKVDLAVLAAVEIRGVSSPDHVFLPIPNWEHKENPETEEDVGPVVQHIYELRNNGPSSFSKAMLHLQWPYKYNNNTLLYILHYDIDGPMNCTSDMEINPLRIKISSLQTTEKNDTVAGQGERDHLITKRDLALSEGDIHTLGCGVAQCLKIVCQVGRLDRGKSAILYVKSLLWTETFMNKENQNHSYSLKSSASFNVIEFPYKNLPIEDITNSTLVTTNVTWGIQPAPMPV
T1 sequence (P18084 24-719, chain 2 of 2): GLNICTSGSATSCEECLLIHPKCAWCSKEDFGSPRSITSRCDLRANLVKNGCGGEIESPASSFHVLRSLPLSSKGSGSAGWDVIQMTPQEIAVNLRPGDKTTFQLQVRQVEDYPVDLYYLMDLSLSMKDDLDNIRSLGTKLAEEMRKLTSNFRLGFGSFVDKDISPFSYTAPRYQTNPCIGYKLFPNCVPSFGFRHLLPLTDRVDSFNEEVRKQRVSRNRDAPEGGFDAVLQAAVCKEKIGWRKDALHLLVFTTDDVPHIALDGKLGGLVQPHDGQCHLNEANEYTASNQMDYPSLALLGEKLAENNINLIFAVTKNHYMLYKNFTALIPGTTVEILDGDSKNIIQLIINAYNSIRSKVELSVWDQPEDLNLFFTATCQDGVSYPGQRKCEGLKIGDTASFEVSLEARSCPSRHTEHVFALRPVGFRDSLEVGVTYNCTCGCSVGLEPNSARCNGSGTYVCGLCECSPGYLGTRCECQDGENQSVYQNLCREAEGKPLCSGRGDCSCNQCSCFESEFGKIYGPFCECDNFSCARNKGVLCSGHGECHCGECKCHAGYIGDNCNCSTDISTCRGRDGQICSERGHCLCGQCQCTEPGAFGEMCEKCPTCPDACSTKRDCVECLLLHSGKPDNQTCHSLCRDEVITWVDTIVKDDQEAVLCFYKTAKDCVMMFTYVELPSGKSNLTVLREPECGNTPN
Assay: ELISA, coated integrin, anti-MICA-HRP
Response field label: string, one of Condition met (αvβ5 signal/ng strictly below 10 signal/ng MICA) or Condition not met.

soluble MICA generated from pKK51 (loop 3 insert extended 5.3sp) (designed binder, From pSW276 (no N-terminal His tag, Lys125); secreted by 293T cells; also called 3-5.3sp) EPHSLRYNLTVLSWDGSVQSGFLTEVHLDGQPFLRCDRQKCRAKPQGQWAEDVLGNKTWDRETRDLTGNGKDLRMTLAHIKDQKEGLHSLQEIRVCEIHEDNSTRSSQHFYYDGELFLSQNLETKEWTMPQSSRAQTLAMNVRNFLKEDAMKTKTHYHAMHADCLQELRRYLKSGVVLRRTVPPMVNVTRSEASEGNITVTCRASGFYPWNITLSWRQDGVSLSHDTQQWGDVLPDGNGTYQTWVATRISGGSGGGSHLARGDDLTYSGGSGGGCYMEHSGNHSTHPVPSGK ... Condition not met
soluble MICA generated from pKK50 (loop 3 insert extended 5.1sp) (designed binder, From pSW276 (no N-terminal His tag, Lys125); secreted by 293T cells; also called 3-5.1sp) EPHSLRYNLTVLSWDGSVQSGFLTEVHLDGQPFLRCDRQKCRAKPQGQWAEDVLGNKTWDRETRDLTGNGKDLRMTLAHIKDQKEGLHSLQEIRVCEIHEDNSTRSSQHFYYDGELFLSQNLETKEWTMPQSSRAQTLAMNVRNFLKEDAMKTKTHYHAMHADCLQELRRYLKSGVVLRRTVPPMVNVTRSEASEGNITVTCRASGFYPWNITLSWRQDGVSLSHDTQQWGDVLPDGNGTYQTWVATRISGGSGGGSVTRGDTFTQSSGGSGGGCYMEHSGNHSTHPVPSGK ... Condition met
soluble MICA generated from pKK48 (loop 3 insert extended 3.2sp) (designed binder, From pSW276 (no N-terminal His tag, Lys125); secreted by 293T cells; also called 3-3.2sp) EPHSLRYNLTVLSWDGSVQSGFLTEVHLDGQPFLRCDRQKCRAKPQGQWAEDVLGNKTWDRETRDLTGNGKDLRMTLAHIKDQKEGLHSLQEIRVCEIHEDNSTRSSQHFYYDGELFLSQNLETKEWTMPQSSRAQTLAMNVRNFLKEDAMKTKTHYHAMHADCLQELRRYLKSGVVLRRTVPPMVNVTRSEASEGNITVTCRASGFYPWNITLSWRQDGVSLSHDTQQWGDVLPDGNGTYQTWVATRISGGSGGGSTSRGDHPRTQSGGSGGGCYMEHSGNHSTHPVPSGK ... Condition met

Data request: Just wondering, is αvβ5 signal/ng of soluble MICA generated from pKK53 (tight loop 1 insert T-3.5) (designed binder, From pSW324 (from pKK34: His6, Glu125); secreted by 293T cells; also called 1-T-3.5) HHHHHHEPHSLRYNLTVLSWDGSVQSGFLTEVHLDGQPFLRCDRQKCRAKPQGQWAEDVLGNKTWDRETRDLTGNGKDLRMTLAHIKDQKEGLHSLQEIRVCEIHEDNSTRSSQHFYYDGELFLSQNLETEEWTMPQSSRAQTLAMNVRNFLKEDAMKTKTHYHAMHADCLQELRRYLKSGVVLRRTVPPMVNGSRGDSLIMHCRASGFYPWNITLSWRQDGVSLSHDTQQWGDVLPDGNGTYQTWVATRICQGEEQRFTCYMEHSGNHSTHPVPSGK below 10 signal/ng MICA?
Data returned: Condition not met
